Kindly state Rate of increase or decrease (second value, decrease) for each of the entries shown.
- TEST_DESCRIPTION: GC/MS of blood plasma sample: number of times of freezing and thawing (Table C)
- Type: physicochemical, human
- COND: different from individual to individual, individuals with decrease, relative to 1 at 2 times, freezing and thawing 4 times
- Protocol: At room temperature, 5 mL of blood from a healthy subject was taken into a blood-collecting vessel containing EDTA, and the blood-collecting vessel was inverted for mixing, then cooled, and allowed to stand at 4° C. […]
Answers are plain numbers.

O[C@@H]1[C@@H](O)[C@@H]2OC[C@@H](O2)[C@H]1O [1,6-Anhydroglucose] : 0.42

List reported Rate of increase or decrease (second value, decrease) for each of these compounds:
1. O=C(O)CCCCCCCC(=O)O
2. O=C(CO)[C@H](O)[C@H](O)[C@H](O)CO
3. Oc1ccccn1 [2-Hydroxypyridine]
4. O=C(O)c1cccnc1C(=O)O

0.66
0.70
0.54
0.68

List reported Rate of increase or decrease (second value, decrease) for each of these compounds:
1. N[C@@H](CS(=O)O)C(=O)O
2. Oc1ccc(O)cc1 [Hydroquinone]

1. 0.58
2. 0.69
